Origin of measurements: PubChem BioAssay

# test target: NADPH oxidase 5 (Homo sapiens) (UniProt Q96PH1)
# Sequence (Q96PH1 whole entry, looked up): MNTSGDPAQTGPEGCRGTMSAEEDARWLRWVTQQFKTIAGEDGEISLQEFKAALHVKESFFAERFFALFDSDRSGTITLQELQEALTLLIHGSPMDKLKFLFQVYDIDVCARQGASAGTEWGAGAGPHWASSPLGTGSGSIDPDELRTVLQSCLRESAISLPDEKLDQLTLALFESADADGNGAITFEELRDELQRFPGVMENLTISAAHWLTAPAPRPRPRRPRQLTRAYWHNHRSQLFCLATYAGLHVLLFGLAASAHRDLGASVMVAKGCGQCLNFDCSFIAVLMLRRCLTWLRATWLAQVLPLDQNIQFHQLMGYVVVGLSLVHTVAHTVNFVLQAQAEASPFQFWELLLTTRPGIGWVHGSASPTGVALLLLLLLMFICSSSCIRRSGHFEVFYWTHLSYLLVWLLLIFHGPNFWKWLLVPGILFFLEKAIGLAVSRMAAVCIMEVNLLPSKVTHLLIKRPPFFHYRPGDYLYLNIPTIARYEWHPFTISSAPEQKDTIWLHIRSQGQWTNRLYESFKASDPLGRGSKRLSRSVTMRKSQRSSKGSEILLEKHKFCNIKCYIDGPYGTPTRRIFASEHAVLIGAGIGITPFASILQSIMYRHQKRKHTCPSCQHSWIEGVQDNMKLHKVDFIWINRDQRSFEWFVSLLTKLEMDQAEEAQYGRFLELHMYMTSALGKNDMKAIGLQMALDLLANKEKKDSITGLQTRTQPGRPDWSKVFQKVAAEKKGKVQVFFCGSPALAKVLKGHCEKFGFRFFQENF
# measurement notes: NOX5-dependent H2O2 signal modulators, primary screen, NOX inhibitor project, cell-based, HEK293-NOX5, Amplex Red fluorescence (AID 1161)
# experimental setup: HEK293-NOX5, ionomycin, 45 min, higher = more signal
Kindly return true (1) if reported z-score is no lower than -0.4; return false (0) if it is lower.

Please review the following examples before continuing.
molecule: O=C(CS)NCCCCCCNC(=O)[C@@H]1C[C@@H]2C(=O)NCC(=O)N2[C@@H]1c1cccc(OCCO)c1
label class: true (1)
//
molecule: COc1cc2c(cc1O)C(C1CC1)N(Cc1sc3ccccc3c1Cl)CC2 (stereo not drawn)
label class: false (0)

INPUT: Check this molecule for z-score at or above -0.4: COc1ccc(CCNC(=O)[C@@]2(C)c3ccccc3C(=O)N(C(C)C)[C@H]2c2ccc(CO)cc2)cc1
OUTPUT: true (1)

====

# Test system: Wnt5a (protein binding on small-molecule microarray)
# measurement notes: Wnt5a binders on small-molecule microarray, primary screen, biophysical, 635/667 nm fluorescence (AID 1142);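 note: fluorescence read at 667 nm with signal to noise per printed feature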
# experimental setup: 635 nm fluorescence, higher = more signal
The following compounds are listed with their measured composite z-score values.
Lab note: jot down the number only; don't add units.

Some solved cases for reference:
compound smiles: O=C1[C@@]23C=C(Br)[C@H](C[C@@H]2CCOC3)[C@@]12CO2
recorded metric: composite z-score
recorded result: -0.0248
--
compound smiles: CCCCCCc1nc(-c2cc(C)c(OC)c(C)c2)cc2c1[Si](C(C)C)(C(C)C)OC2
recorded metric: composite z-score
recorded result: -0.227
--
compound smiles: CC(C)[Si](C#Cc1ccc(Oc2ccccc2)cc1)(O[Si](C#Cc1ccc(Oc2ccccc2)cc1)(C(C)C)C(C)C)C(C)C
recorded metric: composite z-score
recorded result: 0.253
--
compound smiles: CN(C)C(=O)[C@@]1(CCS(=O)(=O)c2ccccc2)COC(c2ccc(OCCCO)cc2)=N1
recorded metric: composite z-score
recorded result: 0.623

Shift focus to the following entry.
GET /value?item= C=CCNC(=O)[C@@H]1[C@H]2C(=O)O[C@H](c3ccccc3)[C@H](c3ccccc3)N2[C@H](c2ccc(O)cc2)[C@@]12C(=O)Nc1ccc(C#CCNC(N)=O)cc12 &field=composite z-score returns -0.525

====

# test target: Epidermal growth factor receptor (Homo sapiens) (UniProt P00533)
# Sequence (P00533 whole entry, looked up): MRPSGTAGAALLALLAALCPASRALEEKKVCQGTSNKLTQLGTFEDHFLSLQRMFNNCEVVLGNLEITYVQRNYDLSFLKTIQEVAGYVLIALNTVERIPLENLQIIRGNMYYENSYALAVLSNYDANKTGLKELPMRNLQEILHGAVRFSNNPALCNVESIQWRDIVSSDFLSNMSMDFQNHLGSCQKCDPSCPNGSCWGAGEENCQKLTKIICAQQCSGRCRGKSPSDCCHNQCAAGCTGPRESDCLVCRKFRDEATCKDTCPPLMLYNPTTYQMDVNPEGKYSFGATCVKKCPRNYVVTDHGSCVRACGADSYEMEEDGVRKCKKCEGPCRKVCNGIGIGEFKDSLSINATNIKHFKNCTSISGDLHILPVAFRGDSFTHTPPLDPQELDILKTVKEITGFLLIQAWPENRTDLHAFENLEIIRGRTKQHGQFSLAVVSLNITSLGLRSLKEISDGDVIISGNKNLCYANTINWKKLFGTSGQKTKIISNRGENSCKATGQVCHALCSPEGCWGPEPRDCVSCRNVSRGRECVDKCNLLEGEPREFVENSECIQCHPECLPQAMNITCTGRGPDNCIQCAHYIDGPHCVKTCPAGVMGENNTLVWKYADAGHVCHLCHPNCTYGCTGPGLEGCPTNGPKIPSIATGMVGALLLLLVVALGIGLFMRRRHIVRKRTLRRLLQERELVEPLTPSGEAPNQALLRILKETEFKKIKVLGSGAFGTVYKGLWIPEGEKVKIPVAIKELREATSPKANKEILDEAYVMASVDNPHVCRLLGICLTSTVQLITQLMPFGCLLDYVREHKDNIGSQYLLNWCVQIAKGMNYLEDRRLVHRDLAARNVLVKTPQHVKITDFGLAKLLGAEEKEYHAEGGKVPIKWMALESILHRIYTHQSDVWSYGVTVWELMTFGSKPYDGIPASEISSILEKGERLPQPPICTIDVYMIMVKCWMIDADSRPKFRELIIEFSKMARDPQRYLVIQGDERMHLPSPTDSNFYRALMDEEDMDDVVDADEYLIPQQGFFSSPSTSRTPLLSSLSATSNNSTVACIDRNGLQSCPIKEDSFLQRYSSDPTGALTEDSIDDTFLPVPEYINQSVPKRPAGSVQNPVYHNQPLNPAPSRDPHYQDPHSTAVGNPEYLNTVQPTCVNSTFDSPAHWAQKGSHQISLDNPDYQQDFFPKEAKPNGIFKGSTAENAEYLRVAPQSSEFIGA
# measurement notes: EGFR binders on small-molecule microarrays, primary screen, biochemical, small-molecule microarray, 635 nm fluorescence (AID 1104);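 note: score merges 667 nm emission intensity with spot signal to noise over triplicate slides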
# experimental setup: EGFR binding, higher = more signal
Response key: t means composite z-score >= -0.01; f means composite z-score < -0.01.

Example entries and their recorded answers appear below.
compound: CN(C)C(=O)[C@@]1(CCS(=O)(=O)c2ccccc2)COC(c2ccc(OCCCO)cc2)=N1
label class: t
--
compound: COC(=O)[C@@]1(Cc2ccc(OC)cc2)[C@H]2c3cc(C(=O)N(C)C)n(CCc4ccccn4)c3C[C@H]2CN1C(=O)c1ccccc1
label class: f
--
compound: CC(C)CNC(=O)[C@@]1(Cc2ccccc2I)c2ccccc2C(=O)N(C2CCCCC2)[C@H]1c1ccc(CO)cc1
label class: f
--
compound: CCOC(=O)C[C@H]1[C@H](OC(=O)c2ccc(C(=O)c3ccccc3)cc2)[C@@H](NC(=O)c2ccc3ccccc3n2)c2cc(OCCCO)ccc2N1C(=O)c1ccccc1
label class: f
--
compound: O=C1C[C@@](C(=O)NCCN2CCOCC2)(c2ccc([N+](=O)[O-])cc2)[C@@H](c2ccc(CO)cc2)N1CC12CC3CC(CC(C3)C1)C2
label class: t

INPUT: Assess whether reported composite z-score for COC(=O)c1c(CC[C@@H](CO)NC(=O)NCCn2cc(C3(O)CCCC3)nn2)oc(C(C)=O)c1C(=O)OC sits at -0.01 or higher.
OUTPUT: t

INPUT: Identify whether the reported composite z-score of the following compound is -0.01 or greater: CCCCC(CC)C(O)C1C=CC2C(=O)N(Cc3ccccc3)C(=O)C2N1n1cnnc1 (configuration not stated)
OUTPUT: f

====

# measurement notes: Plasmodium falciparum growth inhibition, primary screen, strain 3D7, DAPI fluorescence, 100 nL (AID 1184);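 note: parasites grown inside human red blood cells in medium with human serum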
# experimental setup: P. falciparum 3D7 growth, 3 d, higher = more signal
recorded metric: z-score

Some compounds with recorded z-score:
compound: C=CCOC(=O)[C@H]1[C@@H]2C(=O)O[C@@H](c3ccccc3)[C@@H](c3ccccc3)N2[C@@H](c2ccc(OCCOC(=O)[C@@H]3C[C@@H]4C(=O)N[C@@H](CCCCNC(C)=O)C(=O)N4[C@@H]3c3ccc(O)cc3)cc2)[C@]12C(=O)Nc1ccccc12
z-score: -1.8
--
compound: COc1ccc(C#Cc2ccc3c(c2)[C@]2(C(=O)N3)[C@H](c3ccccc3OCCO)N3[C@H](c4ccccc4)[C@H](c4ccccc4)OC(=O)[C@H]3[C@@H]2C(=O)Nc2nc3ccccc3s2)cc1
z-score: -1.9
--
compound: NC(=O)NCC#Cc1ccc2c(c1)[C@]1(C(=O)N2)[C@H](c2ccccc2OCCO)N2[C@H](c3ccccc3)[C@H](c3ccccc3)OC(=O)[C@H]2[C@@H]1C(=O)Nc1nc2ccccc2s1
z-score: -1.89
--
compound: COc1ccc(CCNC(=O)[C@@]2(Sc3ccc(C)cc3)CC(=O)N(C3Cc4ccccc4C3)[C@@H]2c2ccc(CO)cc2I)cc1
z-score: -0.725
--
compound: CCC(CC)C(O)C1C=CC2C(=O)NC(=O)C2N1Nc1ccccn1 (stereo unspecified)
z-score: -0.3
--
compound: COC(=O)[C@@]1(Cc2ccc(F)cc2)[C@H]2c3cc(C(=O)N4CCCC4)n(Cc4ccc(S(C)(=O)=O)cc4)c3C[C@H]2CN1C(=O)c1ccccc1
z-score: -1.46

Noted for C=CCC(OC(C)=O)[C@@H]1[C@@H](N(Cc2cc3ccccc3o2)C(=O)c2cccc3ccccc23)c2cc(OCCCO)ccc2N1C(=O)c1ccc(-c2ccccc2)cc1 (stereo partly specified) : its z-score reads -3.01

Quick note, z-score for COCCOC(=O)N1C(=O)[C@@]2(c3cc(C#CCCO)ccc31)[C@H](C(=O)N1CCCCCCC1)[C@H]1C(=O)O[C@H](c3ccccc3)[C@H](c3ccccc3)N1[C@@H]2c1ccc(OCCO)cc1 landed at -1.5

Form field z-score, entry CN(C)CCCC[C@@H]1NC(=O)[C@@H]2C[C@H](C(=O)NCCCCCCN)[C@H](c3cccc(OCCO)c3)N2C1=O : 0.0561

Kindly note the recorded z-score for CCCC[C@H]1OB(O)C[C@H]2C1=C(COC)C[C@H]1C(=O)N(C)C(=O)[C@H]12 , which is 1.5

Value of z-score reported for the compound C=C(CCCC)C(=O)CC[C@@H](OC(=O)c1ccccc1-c1ccccc1C(=O)O)c1ccc(OCCO)cc1 is -2.46

====

# measurement notes: fission yeast growth modulation, primary screen, strain 972, OD600, 24 h, no modulator (AID 1090);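 note: basal condition with compound alone and no growth modifier present; test concentration not given here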
# experimental setup: S. pombe 972 growth, higher = more signal, called active from +8 up or from −8 down
z-score values, listed per item
Answer with a number only.

Reference set, count: 5
compound: CC1(C)[C@@H]2CC(C(O)C3C=CC4C(=O)N(c5ccccc5)C(=O)C4N3Nc3ccc([N+](=O)[O-])cc3)=C[C@H]1C2 (some centres undefined)
recorded result: 0.287

compound: CC(C)C[C@@H]1NC(=O)[C@@H]2C[C@H](C(=O)O)[C@H](c3cccc(OCCO)c3)N2C1=O
recorded result: -0.734

compound: C=C[C@H](OC)[C@@H](OC(=O)Nc1ccc(OC)cc1)c1ccc(O)c(F)c1
recorded result: -1.18

compound: N#Cc1ccc(NN2C(C(O)C(c3ccccc3)c3ccccc3)C=CC3C(=O)N(c4ccccc4)C(=O)C32)cc1 (centres undefined)
recorded result: 1.25

compound: CC(C)N1C(=O)c2ccccc2[C@](C)(C(=O)NCCN2CCOCC2)[C@@H]1c1ccc(CO)cc1
recorded result: 0.516

Per the records, this compound ( O=C(c1ccccc1)N1C(=O)[C@@]2(Cc3ccccc31)N=C(c1ccc(OCCCO)cc1)O[C@H]2c1ccccc1 ) has z-score equal to -1.23

====

The following compounds are listed with their measured z-score values.
# measurement notes: yeast growth modulation, basal conditions, primary screen, YJM789 clinical isolate, OD600, 24 h (AID 1089);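 note: growth of clinical yeast isolate S. cerevisiae YJM 789 seeded 1000 cells per well; test concentration not given here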
# experimental setup: S. cerevisiae YJM789 growth, higher = more signal, called active from +8 up or from −8 down
Calls of active or inactive are those of the source.

Consider the reported z-score for these compounds:
compound: COCCOC(=O)N1C(=O)[C@@]2(c3ccccc31)[C@H](c1ccccc1OCCO)N1[C@H](c3ccccc3)[C@H](c3ccccc3)OC(=O)[C@H]1[C@@H]2C(=O)N1CCN(c2ncccn2)CC1
z-score: 1.68 (inactive)
--
compound: Cc1ccc([C@@H]2C[C@@H](Sc3ccccc3)[C@H](C(=O)O)CN2S(=O)(=O)c2ccc(C)cc2)cc1
z-score: -0.337 (inactive)
--
compound: C=C(CC1([C@@H](NP(=O)(c2ccccc2)c2ccccc2)[C@H]2C[C@@H]2CCCC)CC1)c1ccccc1
z-score: -0.254 (inactive)

Measured z-score, COCCOC(=O)N1C(=O)[C@@]2(c3cc(C#CC4(O)CCCCCC4)ccc31)[C@H](c1ccc(OCCO)cc1)N1[C@H](c3ccccc3)[C@H](c3ccccc3)OC(=O)[C@H]1[C@@H]2C(=O)N1CCN(c2ncccn2)CC1 : 2.64 (inactive)

// sample O=C(NCCN1CCOCC1)C1N=C(c2ccc(OCCCO)cc2)N(c2ccccc2)O1 (stereo not given) , its z-score was -0.101 (inactive)

Just so you know, measured z-score for C=CC[C@]1(C(=O)NCc2ccccc2)N=C(c2ccc(OCCCO)cc2)O[C@H]1c1ccccc1N=[N+]=[N-] came out at -1.33 (inactive)

In plain terms, CCC(CC)C(O)C1C=CC2C(=O)NC(=O)C2N1Nc1ccc(Cl)cc1Cl (stereo not given) has a documented z-score of 0.446 (inactive)

Reported z-score for NC(=O)[C@@H]1[C@H]2C(=O)O[C@H](c3ccccc3)[C@H](c3ccccc3)N2[C@H](c2ccc(O)cc2)[C@@]12C(=O)Nc1ccccc12 was 0.0549 (inactive)
